Test system: Human immunodeficiency virus 1
TEST SUMMARY: Antiviral activity against HIV1 3B infected in human MT4 cells assessed as inhibition of virus-induced cytopathic effect after 5 days by MTT assay
Type: functional, cell-based
STUDY CONDITIONS: Human immunodeficiency virus 1, 3B, MT4, 120 h
pEC50: −log10 of the molar value.
Item-by-item account of pEC50

>  <MOL SMILES>
Cc1ccc(CS(=O)(=O)n2c(=O)[nH]c3ccc(Cl)cc32)cc1

>  <COMPARATIVE SIGN>
=

>  <pEC50>
5.71

$$$$
>  <MOL SMILES>
O=c1[nH]c2ccc(Cl)cc2n1S(=O)(=O)Cc1ccc(Cl)cc1

>  <COMPARATIVE SIGN>
=

>  <pEC50>
5.30

$$$$
>  <MOL SMILES>
Cc1ccccc1CS(=O)(=O)n1c(=O)[nH]c2ccc(Cl)cc21

>  <COMPARATIVE SIGN>
=

>  <pEC50>
5.00

$$$$
>  <MOL SMILES>
Cc1cccc(CS(=O)(=O)n2c(=O)[nH]c3ccc(Cl)cc32)c1

>  <COMPARATIVE SIGN>
=

>  <pEC50>
7.10

$$$$
>  <MOL SMILES>
Cc1cccc(CCS(=O)(=O)n2c(=O)[nH]c3ccc(Cl)cc32)c1

>  <COMPARATIVE SIGN>
<

>  <pEC50>
4.51

$$$$
>  <MOL SMILES>
Cc1ccccc1CCS(=O)(=O)n1c(=O)[nH]c2ccc(Cl)cc21

>  <COMPARATIVE SIGN>
<

>  <pEC50>
4.49

$$$$
>  <MOL SMILES>
O=c1[nH]c2ccc(Cl)cc2n1S(=O)(=O)CCc1ccccc1

>  <COMPARATIVE SIGN>
<

>  <pEC50>
4.52

$$$$
>  <MOL SMILES>
Cc1ccnc2c1NC(=O)c1cccnc1N2C1CC1

>  <COMPARATIVE SIGN>
=

>  <pEC50>
6.74

$$$$
>  <MOL SMILES>
O=c1[nH]c2ccc(Cl)cc2n1S(=O)(=O)CCc1ccccc1Cl

>  <COMPARATIVE SIGN>
<

>  <pEC50>
4.00

$$$$
>  <MOL SMILES>
O=c1[nH]c2ccc(Cl)cc2n1S(=O)(=O)Cc1ccccc1

>  <COMPARATIVE SIGN>
=

>  <pEC50>
6.08

$$$$
>  <MOL SMILES>
O=c1[nH]c2ccc(Cl)cc2n1S(=O)(=O)Cc1ccccc1Cl

>  <COMPARATIVE SIGN>
=

>  <pEC50>
6.72

$$$$
